outcome-measure: melting point

molecule | melting point
Cc1c(OCc2ccccc2)c(=O)ccn1CCC(=O)O | 81 to 83 °C
CC(C)n1nc(-c2cc(N)cnc2-c2ccccc2)ccc1=O | 147 to 148 °C

Lookup: Tell me the measured melting point of "CCOC(=O)c1[nH]c2c(NS(=O)(=O)c3cccs3)cccc2c1C" , please.
Found: 198 to 199 °C

Lookup: Tell me the measured melting point of C#Cc1cn(C2OC(CO)C(O)C2=C)c(=O)[nH]c1=O (stereo not given) , please.
Found: 172 to 174 °C

Lookup: Tell me the measured melting point of "CCN(CC)C(=O)n1nc(NC)n(C)c1=O" , please.
Found: 83 to 85 °C

Lookup: Tell me the measured melting point of "C#CCN1CCc2ccc([N+](=O)[O-])cc2CC1" , please.
Found: 122 to 125 °C

Lookup: Tell me the measured melting point of COc1ccc(C(=O)Nc2c(Cl)cncc2Cl)cc1OC1COCC1OCc1ccccc1 (stereo not given) , please.
Found: 190 to 191 °C

Lookup: Tell me the measured melting point of CCC(NC(=NC#N)Nc1cccnc1)c1cccc(Cl)c1 (stereo not given) , please.
Found: 153 to 155 °C

Lookup: Tell me the measured melting point of "Cc1cc(Cl)c([N+](=O)[O-])c(Cl)n1" , please.
Found: 69 to 70 °C

Lookup: Tell me the measured melting point of "COc1ccccc1N(CCN1CCC(C(=O)c2ccc(F)cc2)CC1)S(=O)(=O)C1=CCC(=NO)C=C1" , please.
Found: 162 to 168 °C
